Catalogue of compounds with associated % Inhibition of 2 mM RR-src at Inhibitor Concentration ( )
Target: pp60^c-src (Homo sapiens)
Test: src Cellular Mimetic assay (RR-SRC phosphorylation)
Details: Table IV, 100 μM inhibitor

Example cases with answers are listed next.
> print(dat)
            compound.smiles   result.value
1        OB(O)c1cc2ccccc2o1  10 (100 μM) %
2       OB(O)c1cccc2ccccc12   0 (100 μM) %
3  NS(=O)(=O)c1cccc2ccccc12   0 (100 μM) %

For the next question, use this compound.
Look up % Inhibition of 2 mM RR-src at Inhibitor Concentration ( ) with pp60^c-src (Homo sapiens) for this compound: NS(=O)(=O)c1ccc2ccccc2c1 0 (100 μM) %

----------
Biological target: pp60^c-src (Homo sapiens, UniProt P12931)
Sequence (P12931 whole entry): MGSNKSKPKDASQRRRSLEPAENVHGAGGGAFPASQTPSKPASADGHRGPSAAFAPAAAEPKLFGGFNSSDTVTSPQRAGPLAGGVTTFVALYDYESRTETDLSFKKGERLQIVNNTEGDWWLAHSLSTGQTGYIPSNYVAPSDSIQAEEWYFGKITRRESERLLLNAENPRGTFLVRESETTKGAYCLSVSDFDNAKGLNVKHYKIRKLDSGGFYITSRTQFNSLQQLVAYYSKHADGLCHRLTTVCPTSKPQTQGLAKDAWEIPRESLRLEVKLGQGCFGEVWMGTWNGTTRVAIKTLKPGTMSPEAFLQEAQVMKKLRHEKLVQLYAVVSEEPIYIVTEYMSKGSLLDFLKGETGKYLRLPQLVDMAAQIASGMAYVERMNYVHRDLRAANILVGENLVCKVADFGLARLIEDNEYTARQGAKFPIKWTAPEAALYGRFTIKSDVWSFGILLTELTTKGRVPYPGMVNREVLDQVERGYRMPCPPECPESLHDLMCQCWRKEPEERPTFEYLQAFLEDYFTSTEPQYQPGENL
Experiment: src Cellular Mimetic assay (RR-SRC phosphorylation)
Details: read-out: % Inhibition of 2 mM RR-src phosphorylation by src, Cellular Mimetic
Catalogue of compounds with associated inhibition at 1000 µM
Hi! Could you send only the number? It should be in %, unit omitted.

Example cases with answers are listed next.
> print(dat)
                              compound     parameter.measured  result.units  result.value
1                          O=P(O)(O)CO  inhibition at 1000 µM             %             0
2  NC(=O)C(O)C(=O)O (stereo not shown)  inhibition at 1000 µM             %             5
3                        NC(=O)CC(=O)O  inhibition at 1000 µM             %            28

For the next question, use this compound.
Need inhibition at 1000 µM of NC(=O)C(N)C(=O)O (stereo not shown) , thanks. 0
